- Tested on: HBV
- testMethodNotes: HBV DNA Quantification Assay
- Format: cell-based
- conditionDescription: Hepatitis B virus, HepG2, 120 h
measureName: pEC50
Interpret pEC50 as the negative base-10 log of the concentration measured in mol/L.

Please review the entries below; each comes with its answer.
Cc1c(C(=O)Nc2ccc(F)c(F)c2)c2n(c1C(=O)C(=O)NC1(c3cn(C[Si](C)(C)C)nn3)CC1)CCC2 7.03
Cc1c(C(=O)Nc2ccc(F)c(F)c2)c2n(c1C(=O)C(=O)NC1(c3cn(C)nn3)CC1)CCC2 7.15
Cc1c(C(=O)Nc2ccc(F)c(F)c2)c2n(c1C(=O)C(=O)NC1(c3c[nH]nn3)COC1)CCC2 7.67

Next, consider the following molecule.
Give the value of pEC50 reported for the following: C#CC1(NC(=O)C(=O)c2c(C)c(C(=O)Nc3ccc(F)c(F)c3)c3n2CCC3)CC1
8.07

---

- testMethodNotes: Kinetic Solubility
- Assay type: physicochemical
- conditionDescription: assay media at pH 1 (composition not named), simulated gastric fluid, kinetic from dmso stock; pH = 1; 0.2 to 100 μM; BD Gentest Solubility Scanner; read-out: Kinetic Solubility at pH = 1
Reported solubility kinetic values follow for various compounds
Provide a numeric answer, followed by its unit.

In the examples that follow, each entry is paired with its recorded solubility kinetic.
compound	measureName	measured
Cc1c(C(=O)Nc2ccc(F)c(F)c2)c2n(c1C(=O)C(=O)NC1(c3c[nH]nn3)COC1)CCC2 [Example 36]	solubility kinetic	63 µM
Cc1c(C(=O)Nc2ccc(F)c(F)c2)c2n(c1C(=O)C(=O)NC1(c3cnn[nH]3)CC(F)(F)C1)[C@@H]1C[C@@H]1C2 [Example 34]	solubility kinetic	51.7 µM
Cc1c(C(=O)Nc2ccc(F)c(F)c2)c2n(c1C(=O)C(=O)NC1(c3cn(C)nn3)CC1)CCC2 [Example 11]	solubility kinetic	48.9 µM

Identify measured solubility kinetic associated with C#CC1(NC(=O)C(=O)c2c(C)c(C(=O)Nc3ccc(F)c(F)c3)c3n2CCC3)CC1 [Example 13]
5 µM

---

- testMethodNotes: Kinetic Solubility
- Type: physicochemical
- conditionDescription: simulated gastric fluid, kinetic from dmso stock; pH = 1; 0.2 to 100 μM; BD Gentest Solubility Scanner; read-out: Kinetic Solubility at pH = 1
measureName: solubility kinetic (µM)
Expressed in µM, but write only the number.

CNC(=O)C1(NC(=O)C(=O)c2c(C)c(C(=O)Nc3ccnc(C(F)F)c3F)c3n2CCC3)CC(F)(F)C1 26.3

Hello, please tell me recorded solubility kinetic for this one: Cc1c(C(=O)Nc2ccc(F)c(F)c2)c2n(c1C(=O)C(=O)NC1(C(N)=O)CC(F)(F)C1)CCC2
90.3

# return recorded solubility kinetic for input Cc1c(C(=O)Nc2ccc(F)c(F)c2)c2n(c1C(=O)C(=O)NC1(c3c[nH]nn3)CC(F)(F)C1)CCC2
66

Supply solubility kinetic value. Item: CNC(=O)C1(NC(=O)C(=O)c2c(C)c(C(=O)Nc3ccc(F)c(F)c3)c3n2CCC3)COC1
88.7

---

- testMethodNotes: Kinetic Solubility
- Type: physicochemical
- conditionDescription: simulated gastric fluid, kinetic from dmso stock; pH = 1; 0.2 to 100 μM; BD Gentest Solubility Scanner; read-out: Kinetic Solubility at pH = 1
- Method: The 10 mM DMSO stock solution of the test compound is serially diluted into a 96-well “DMSO stock dilution plate”. Then Pipette 2 μL from the DMSO stock dilution plate into the “Sample plate” and dilute with 198 µL of the assay media to generate the final concentrations of the test compound ranging from 0.2 to 100 μM. The “Sample plate” is run on a BD Gentest Solubility Scanner.
measureName: solubility kinetic (µM)
Answer format: numeric, µM implied, no suffix.

Return solubility kinetic (reported value) for this compound: Cc1c(C(=O)Nc2ccc(F)c(F)c2)c2n(c1C(=O)C(=O)NC1(c3cnn[nH]3)CC(F)(F)C1)C[C@H]1C[C@@H]21
72.6

Tell me measured solubility kinetic for Cc1c(C(=O)Nc2cc(F)c(F)c(F)c2)c2n(c1C(=O)C(=O)NC1(c3cn(C)nn3)CC(F)(F)C1)CCC2 please.
43.3

Consider the compound Cc1c(C(=O)Nc2ccc(F)c(F)c2)c2n(c1C(=O)C(=O)NC1(c3nncs3)CC(F)(F)C1)CCC2 and give its recorded solubility kinetic.
1.5

Annotate the compound CNC(=O)C1(NC(=O)C(=O)c2c(C)c(C(=O)Nc3cc(F)c(F)c(F)c3)c3n2CCC3)CC(F)(F)C1 with its measured solubility kinetic.
37.5

---

- testMethodNotes: Kinetic Solubility
- Assay type: physicochemical
- conditionDescription: aqueous buffer, kinetic from dmso stock; pH = 7; 0.2 to 100 μM; BD Gentest Solubility Scanner; read-out: Kinetic Solubility at pH = 7
measureName: solubility kinetic (µM)
The answer is to be given in µM; state only the numeric part.

Example entries begin here.
Cc1c(C(=O)Nc2cc(F)c(F)c(F)c2)c2n(c1C(=O)C(=O)NC1(c3cn(C)nn3)CC(F)(F)C1)CCC2 39.9
Cc1c(C(=O)Nc2cc(F)c(F)c(F)c2)c2n(c1C(=O)C(=O)NC1(c3nncs3)CC1)CCC2 4.5
Cc1c(C(=O)Nc2ccc(F)cc2)c2n(c1C(=O)C(=O)NC1(c3cnn[nH]3)CC(F)(F)C1)C[C@H]1C[C@@H]21 61.4
CNC(=O)C1(NC(=O)C(=O)c2c(C)c(C(=O)Nc3ccc(F)cc3)c3n2CCC3)CC(F)(F)C1 95.3

Quickly give me recorded solubility kinetic for Cc1c(C(=O)Nc2ccc(F)c(F)c2)c2n(c1C(=O)C(=O)NC1(c3nncs3)CC(F)(F)C1)CCC2
1.1

Please indicate solubility kinetic recorded for CNC(=O)C1(NC(=O)C(=O)c2c(C)c(C(=O)Nc3ccc(F)c(F)c3)c3n2CCC3)COC1
86.7

Specify measured solubility kinetic for CNC(=O)C1(NC(=O)C(=O)c2c(C)c(C(=O)Nc3ccnc(C(F)F)c3F)c3n2CCC3)CC(F)(F)C1 .
28

Specify solubility kinetic for Cc1c(C(=O)Nc2ccc(F)c(F)c2)c2n(c1C(=O)C(=O)NC1(c3cnn[nH]3)CC(F)(F)C1)[C@H]1C[C@H]1C2 and stop.
49.4

---

- testMethodNotes: Kinetic Solubility
- Assay type: physicochemical
- conditionDescription: simulated gastric fluid, kinetic from dmso stock; pH = 1; 0.2 to 100 μM; BD Gentest Solubility Scanner; read-out: Kinetic Solubility at pH = 1
measureName: solubility kinetic

CNC(=O)C1(NC(=O)C(=O)c2c(C)c(C(=O)Nc3ccc(F)c(F)c3)c3n2C[C@H]2C[C@@H]32)CC(F)(F)C1 > 100 µM
CNC(=O)C1(NC(=O)C(=O)c2c(C)c(C(=O)Nc3ccc(F)c(F)c3)c3n2C[C@@H]2C[C@H]32)CC(F)(F)C1 > 100 µM
CNC(=O)C1(NC(=O)C(=O)c2c(C)c(C(=O)Nc3ccc(F)c(C(F)F)c3)c3n2CCC3)CC(F)(F)C1 > 100 µM

Turning now to a further record.
Please give measured solubility kinetic of the following entry: Cc1c(C(=O)Nc2cc(F)c(F)c(F)c2)c2n(c1C(=O)C(=O)NC1(c3nncs3)CC(F)(F)C1)CCC2
< 1 µM
